Biological target: IRAK4 (Homo sapiens (Human), UniProt Q9NWZ3)
Sequence (Q9NWZ3 whole entry): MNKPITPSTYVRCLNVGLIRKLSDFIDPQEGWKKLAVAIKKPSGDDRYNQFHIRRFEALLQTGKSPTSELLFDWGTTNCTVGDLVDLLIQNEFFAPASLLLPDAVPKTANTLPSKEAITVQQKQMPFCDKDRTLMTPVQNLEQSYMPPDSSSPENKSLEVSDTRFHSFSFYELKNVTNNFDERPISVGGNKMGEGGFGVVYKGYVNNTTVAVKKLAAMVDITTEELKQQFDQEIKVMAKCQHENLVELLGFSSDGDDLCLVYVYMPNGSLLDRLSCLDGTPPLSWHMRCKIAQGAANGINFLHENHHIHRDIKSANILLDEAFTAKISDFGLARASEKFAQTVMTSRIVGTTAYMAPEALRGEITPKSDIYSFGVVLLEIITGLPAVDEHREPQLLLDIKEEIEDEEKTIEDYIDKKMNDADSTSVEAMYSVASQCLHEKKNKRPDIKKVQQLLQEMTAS
Experiment: IRAK4 Kinase Assay
Assay type: biochemical
Conditions: IMAP fluorescence polarization, 0.5 nM GST tagged IRAK4, 100 μM ATP, 30 minutes at 25° C.; read-out: IRAK4 IC50
Where a name gives a salt, the structure may show the parent alone.
Value Kind: pIC50
Units for pIC50: none; it is -log10 of a concentration expressed in mol/L.

Use the examples below as a reference point.
[
  {
    "Compound": "Cn1cc(NC(=O)c2cnn3ccc(N4CC5CCC4CN5)nc23)c(C(F)F)n1 (stereo not drawn) [Example 96, trifluoroacetate]",
    "pIC50": 8.70
  },
  {
    "Compound": "N[C@H]1CCCC[C@H]1Nc1ccn2ncc(C(=O)Nc3cn(CC(F)(F)F)nc3C(F)(F)F)c2n1 [Example 295, trifluoroacetate]",
    "pIC50": 9.00
  }
]

Could you now look at the following compound, please?
Task: Reported pIC50, compound Cn1cc(NC(=O)c2cnn3ccc(N4CCC(F)(F)[C@H](N)C4)nc23)c(C(F)(F)F)n1 (single isomer, unassigned) [Example 192] : ____
Output: 7.64

----------
Reported IC50 values are given for each entry in this list.
Biological target: IRAK4 (Homo sapiens (Human), UniProt Q9NWZ3)
Test: IRAK4 Kinase Assay
Format: biochemical
Conditions: IMAP fluorescence polarization, 0.5 nM GST tagged IRAK4, 100 μM ATP, 30 minutes at 25° C.; read-out: IRAK4 IC50
Where a name gives a salt, the structure may show the parent alone.
A number alone suffices; assume nM.

A selection of reference data follows.
[
  {
    "Molecule": "C[C@@H]1CN(c2ccn3ncc(C(=O)Nc4cn(C)nc4C(F)(F)F)c3n2)[C@H](C)CN1 (relative stereo) [Example 75, trifluoroacetate]",
    "Assay Value": 55
  },
  {
    "Molecule": "Cn1cc(NC(=O)c2cnn3ccc(N[C@@H]4CCCC[C@@H]4N)nc23)c(Cl)n1 [Example 149, trifluoroacetate]",
    "Assay Value": 0.5
  }
]

Please turn your attention to the following entry.
Task: Record Cn1cc(NC(=O)c2cnn3ccc(N4CC5CCC4CN5)nc23)c(C(F)(F)F)n1 (stereo not drawn) [Example 11, hydrochloride] : what is its IC50 with IRAK4 (Homo sapiens (Human), UniProt Q9NWZ3)?
Output: 28

----------
Recorded IC50 for the following molecules
Target: UniProt Q9NWZ3
Experiment: IRAK4 Kinase Assay
Assay type: biochemical
Conditions: IMAP fluorescence polarization, 0.5 nM GST tagged IRAK4, 100 μM ATP, 30 minutes at 25° C.; read-out: IRAK4 IC50
Counter-ions that a name gives are not always drawn.
Only the number, expressed in nM, is required.

[
  {
    "Molecule": "N[C@H]1CCCC[C@H]1Nc1ccn2ncc(C(=O)Nc3cn(C(F)F)nc3C(F)(F)F)c2n1 [Example 296, trifluoroacetate]",
    "Value Kind": "IC50",
    "Assay Value": 2
  }
]

Task: Requested read-out: IC50. Entry: "CN[C@H]1CCCC[C@H]1Nc1ccn2ncc(C(=O)Nc3cn(C)nc3C(F)(F)F)c2n1"
Output: 24

Task: Entry under review: Cn1cc(NC(=O)c2cnn3ccc(N4CCNCC(F)C4)nc23)c(C(F)(F)F)n1 (stereo not shown) [Example 27, trifluoroacetate] . Reported IC50?
Output: 149

Task: Reported IC50, molecule Cn1cc(NC(=O)c2cnn3ccc(N4CC5CC(C4)N5)nc23)c(C(F)(F)F)n1 [Example 19, trifluoroacetate] : ____
Output: 389

----------
The entries below come with measured IC50 values attached.
Molecular target: IRAK4 (Homo sapiens (Human))
Assay: IRAK4 Kinase Assay
Type: biochemical
Conditions: IMAP fluorescence polarization, 0.5 nM GST tagged IRAK4, 100 μM ATP, 30 minutes at 25° C.; read-out: IRAK4 IC50
Structures can show the parent of a compound that is named as a salt.
Put down the number, then write its unit next to it.

[
  {
    "Compound": "Cn1cc(NC(=O)c2cnn3ccc(N[C@@H]4CCC(F)(F)C[C@@H]4N)nc23)c(C(F)F)n1 (single isomer, unassigned)",
    "IC50": "27 nM"
  }
]

Task: Using the record for N[C@@H]1[C@H](Nc2ccn3ncc(C(=O)Nc4cn(CC(F)(F)F)nc4C(F)(F)F)c3n2)CCCC1(F)F [Example 69, trifluoroacetate] , report its IC50.
Output: 927 nM

Task: So what's the measured IC50 for this one? N#Cc1ccccc1NC(=O)c1cnn2ccc(N3CCCNCC3)nc12 [Example 273, trifluoroacetate]
Output: 1360 nM

Task: What does the record list as IC50 for Cn1cc(NC(=O)c2cnn3ccc(N4CC5CNC(C5)C4)nc23)c(C(F)F)n1 (stereo not drawn) ?
Output: 14 nM

Task: I would be grateful if you could share the reported IC50 for Cn1cc(NC(=O)c2cnn3ccc(N[C@H]4CNCCC4(F)F)nc23)c(C(F)(F)F)n1 (single isomer, unassigned) [Example 245, trifluoroacetate] .
Output: 8 nM

Task: Given the entry Cn1cc(NC(=O)c2cnn3ccc(N4CC5CCC4CCN5)nc23)c(C(F)(F)F)n1 (stereo not drawn) [Example 73, trifluoroacetate] , report its measured IC50.
Output: 144 nM

Task: Look up IC50 for this compound: C[C@@H]1CN[C@@H](C)CN1c1ccn2ncc(C(=O)Nc3cn(C)nc3C(F)(F)F)c2n1 (relative stereo) [Example 93, trifluoroacetate]
Output: 30 nM

Task: IC50 for O=C(Nc1ccccc1C(F)F)c1cnn2ccc(N3CC4CCC3CN4)nc12 (stereo not drawn) ?
Output: 1460 nM

Task: Please report the recorded IC50 for O=C(Nc1ccccc1I)c1cnn2ccc(N3CCNCC4(CC4)C3)nc12 [Example 100, trifluoroacetate] .
Output: 8080 nM

Task: Value lookup for IC50; key = Cn1cc(NC(=O)c2cnn3ccc(N4C[C@H](N)C[C@@H](F)C4)nc23)c(C(F)F)n1 [Example 253, trifluoroacetate]
Output: 0.5 nM

----------
Target: IRAK4 (Homo sapiens (Human), UniProt Q9NWZ3)
Assay: IRAK4 Kinase Assay
Type: biochemical
Settings: IMAP fluorescence polarization, 0.5 nM GST tagged IRAK4, 100 μM ATP, 30 minutes at 25° C.; read-out: IRAK4 IC50
Counter-ions that a name gives are not always drawn.
Value Kind: IC50

Recorded results for 3 compounds are shown here.
[
  {
    "Compound": "N#Cc1sccc1NC(=O)c1cnn2ccc(N3CC4CCC3CN4)nc12 (stereo not shown) [Example 110, trifluoroacetate]",
    "IC50": "193 nM"
  },
  {
    "Compound": "N#Cc1cscc1NC(=O)c1cnn2ccc(N3CC4CCC3CN4)nc12 (stereo not shown) [Example 145, trifluoroacetate]",
    "IC50": "165 nM"
  },
  {
    "Compound": "Cn1cc(NC(=O)c2cnn3ccc(N4CCNC(C5CC5)C4)nc23)c(C(F)(F)F)n1 (stereo not shown) [Example 28, trifluoroacetate]",
    "IC50": "72 nM"
  }
]

Task: State the recorded IC50 for this entry: O=C(Nc1ccsc1Cl)c1cnn2ccc(N3CCCNCC3)nc12 [Example 117, trifluoroacetate]
Output: 403 nM

Task: Please look up its IC50: O=C(Nc1ccccc1Br)c1cnn2ccc(N[C@@H]3CCCC[C@@H]3O)nc12 [Example 195]
Output: 2930 nM

Task: Request the reported IC50 associated with Cn1cc(NC(=O)c2cnn3ccc(N4CCN(CC5CC5)CC4)nc23)c(C(F)(F)F)n1 [Example 6]
Output: 681 nM

Task: Given the compound N#Cc1sccc1NC(=O)c1cnn2ccc(N[C@@H]3CCCC[C@@H]3O)nc12 [Example 187] , what is its reported IC50?
Output: 250 nM

Task: Bench note: what IC50 did Cn1cc(NC(=O)c2cnn3ccc(N4C[C@H](N)C[C@H](F)C4)nc23)c(C(F)F)n1 [Example 251, trifluoroacetate] show?
Output: 0.7 nM

Task: Consider the compound Cn1cc(NC(=O)c2cnn3ccc(N4C[C@@H]5CC[C@H]4CN5)nc23)c(C(F)(F)F)n1 (single isomer, unassigned) [Example 78, trifluoroacetate] and give its measured IC50.
Output: 44 nM

Task: What value of IC50 has been recorded for this entry: Cn1cc(NC(=O)c2cnn3ccc(N4C[C@@H](O)C[C@H](O)C4)nc23)c(C(F)(F)F)n1 [Example 21]
Output: 20 nM

Task: Report IC50 for Cn1cc(NC(=O)c2cnn3ccc(N[C@@H]4CCCCNC4)nc23)c(C(F)F)n1 (single isomer, unassigned) [Example 162, trifluoroacetate] please.
Output: 0.2 nM

----------
Target: IRAK4 (Homo sapiens (Human))
Test: IRAK4 Kinase Assay
Type: biochemical
Settings: IMAP fluorescence polarization, 0.5 nM GST tagged IRAK4, 100 μM ATP, 30 minutes at 25° C.; read-out: IRAK4 IC50
Where a name gives a salt, the structure may show the parent alone.
Value Kind: pIC50
Just the number, please; pIC50 means minus log10 of the concentration in mol/L.

# count of solved cases: 4
[
  {
    "Molecule": "N[C@@H]1[C@H](Nc2ccn3ncc(C(=O)Nc4cn(CC(F)F)nc4C(F)(F)F)c3n2)CCCC1(F)F [Example 66, trifluoroacetate]",
    "pIC50": 6.61
  },
  {
    "Molecule": "Cn1cc(NC(=O)c2cnn3ccc(N4C[C@H]5CNC[C@@H]4C5)nc23)c(C(F)F)n1 (single isomer, unassigned) [Example 240]",
    "pIC50": 7.37
  },
  {
    "Molecule": "Cn1cc(NC(=O)c2cnn3ccc(N[C@H]4CNCC[C@@H]4F)nc23)c(C(F)(F)F)n1 (single isomer, unassigned) [Example 233]",
    "pIC50": 9.30
  },
  {
    "Molecule": "N#Cc1cscc1NC(=O)c1cnn2ccc(N3CCCNCC3)nc12 [Example 141, trifluoroacetate]",
    "pIC50": 6.44
  }
]

Task: # query: pIC50 of entry N#Cc1ccccc1NC(=O)c1cnn2ccc(NC3CCCCNC3)nc12 (centres unmarked) [Example 272, trifluoroacetate]
Output: 7.24

Task: Fill blank: measured pIC50 of the molecule Cn1cc(NC(=O)c2cnn3ccc(N[C@@H]4CCCC(F)(F)[C@@H]4N)nc23)c(Br)n1 [Example 139, trifluoroacetate] is ____.
Output: 6.90

Task: Requested read-out: pIC50. Entry: Cn1cc(NC(=O)c2cnn3ccc(N4CCNCC5(CC5)C4)nc23)c(C(F)(F)F)n1 [Example 14]
Output: 7.80
